assayed-system: T1, AAV8 (adeno-associated virus serotype 8)
T1 construct: also called adeno-associated virus serotype 8
experiment-description: SPR, AAV on CM5 chip
Rule: True for kon not less than 100000 M⁻¹ s⁻¹, False for anything less.

{"binder": "A4-H2 (VHH) VHH: VQLQASGGGFVQPGGSLRLSCAASGRSFSINTMGWFRQAPGKEREFVAVVTRGGSTYYADSVKGRFTISRDNSKNTVYLQMNSLRAEDTATYYCHIDEVRQSSWTTSNIWGQGTQVTVSS", "assigned-category": "True"}
{"binder": "A4-H4 (VHH) VHH: VQLVESGGGLVQPGGSLRLSCAASGSIFSINLMGWFRQAPGKGLELVAIITPGGNTYYADSVKGRFTISRDNSKNTVYLQMNSLRAEDTAVYYCHVDEVRQSSWTTSNLWGQGTLVTVSS", "assigned-category": "True"}
{"binder": "A4-H3 (VHH) VHH: VQLQASGGGFVQPGGSLRLSCAASGSIFSINLMGWFRQAPGKERELVAVITPGGNTYYADSVKGRFTISRDNSKNTVYLQMNSLRAEDTATYYCHVDEVRQSSWTTSNLWGQGTQVTVSS", "assigned-category": "True"}
{"binder": "A4-H1 (VHH) VHH: VQLVESGGGLVQPGGSLRLSCAASGRSFSINTMGWFRQAPGKGLEAVAIVTRGGSTYYADSVKGRFTISRDNSKNTLYLQMNSLRAEDTAVYYCHIDEVRQSSWTTSNIWGQGTLVTVSS", "assigned-category": "True"}
{"binder": "A4-H5 (VHH) VHH: VQLQASGGGFVQPGGSLRLSCAASGRGFSINTMGWFRQAPGKERELVAVVTRGGTTYYADSVKGRFTISRDNSKNTVYLQMNSLRAEDTAVYYCHVDEVRQSSWTTSNLWGQGTQVTVSS", "assigned-category": "False"}
{"binder": "A4-H6 (VHH) VHH: VQLVESGGGLVQPGGSLRLSCAASGRGFSINTMGWFRQAPGKGRELVAIVTRGGTTYYADSVKGRFTISRDNSKNTVYLQMNSLRAEDTAVYYCHVDEVRQSSWTTSNLWGQGTLVTVSS", "assigned-category": "False"}
